# target.system: BsIMPDH (Bacillus subtilis, UniProt P21879)
# Construct: His8 (TEV site) (N, cleaved yes)
# Sequence (P21879 whole entry): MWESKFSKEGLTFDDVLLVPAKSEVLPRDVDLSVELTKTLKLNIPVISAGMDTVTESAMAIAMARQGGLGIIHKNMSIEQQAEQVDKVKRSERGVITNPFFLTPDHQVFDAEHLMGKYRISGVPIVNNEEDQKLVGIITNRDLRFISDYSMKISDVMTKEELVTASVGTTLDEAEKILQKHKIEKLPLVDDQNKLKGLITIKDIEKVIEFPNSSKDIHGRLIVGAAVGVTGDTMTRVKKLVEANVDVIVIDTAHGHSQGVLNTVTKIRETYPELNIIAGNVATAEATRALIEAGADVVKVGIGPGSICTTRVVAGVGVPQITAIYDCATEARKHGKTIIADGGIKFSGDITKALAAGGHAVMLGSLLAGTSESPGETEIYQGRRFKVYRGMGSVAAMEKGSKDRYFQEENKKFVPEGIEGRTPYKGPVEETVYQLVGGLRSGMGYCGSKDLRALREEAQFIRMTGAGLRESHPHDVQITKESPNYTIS
# method.description: biochemical
parameter: Ki (mM)
Your answer is read as mM, so omit the unit and give the number.

>>> assay_value("Nc1nc2c(ncn2[C@@H]2O[C@H](COP(=O)(O)OP(=O)(O)O)[C@@H](O)[C@H]2O)c(=O)[nH]1 [GDP, guanosine-5′-diphosphate]")
2.3

Query block: Report Ki under test system BsIMPDH (Bacillus subtilis, UniProt P21879) for Nc1nc2c(ncn2[C@@H]2O[C@H](COP(=O)(O)O)[C@@H](O)[C@H]2O)c(=O)[nH]1 [GMP, guanosine-5′-monophosphate] .
Result block: 0.42
